Recorded values, source patent US6627771B1.

# assayed.target: System L
# assay.notes: System L Binding
metric: pIC50
# pIC50 is unitless: minus log10 of the molar concentration; print number only

Examples with their reported pIC50 follow.
1) NCC(CC(=O)O)C1CCC1 (stereo not drawn) : 2.82
2) NCC(CC(=O)O)C1CCCC1 (stereo not drawn) : 3.33
3) NCC(CC(=O)O)CC1CC1 (stereo not drawn) : 2.73
4) NCC(CC(=O)O)CC1CCCCC1 (stereo not drawn) : 2.26
5) NC[C@H](CC(=O)O)C1CCCC1 [4R+, 4(R)-Amino-3-cyclopentyl-butyric Acid] : 3.70
6) NC[C@@H](CC(=O)O)C1CCCC1 [5S−, (S)-4-Amino-3-cyclopentyl-butyric Acid] : 3.32
7) NCC(CC(=O)O)CC1CCC1 (stereo not drawn) : 2.59
8) CC(CN)(CC(=O)O)CC1CCC1 (stereo not drawn) : 3.98
9) NCC(CC(=O)O)CC1CCCC1 (stereo not drawn) : 2.33
10) CC(CN)(CC(=O)O)C1CC1 (stereo not drawn) : 3.22

pIC50 reported for this molecule CC(CN)(CC(=O)O)CC1CCCC1 (stereo not drawn) : 2.98

GET /value?item= CC(CN)(CC(=O)O)C1CCC1 (stereo not drawn) &field=pIC50 returns 4.13
